Procedure summary: Cytotoxicity against HEK293T cells assessed as reduction in cell viability at 3.3 uM incubated for 48 hrs by MTT assay
Type: toxicity, cell-based, HEK-293T
Details: human, read-out: INH
Property measured: cytotoxicity at 48 h, 3.3 µM (%)
Numbers only, in %.

The compound identified as "CCCCc1ccc(NC(=O)c2ccc([N+](=O)[O-])o2)cc1" registered its cytotoxicity at 48 h, 3.3 µM at 80.1

----------
Procedure summary: Cytotoxicity against HUVEC assessed as reduction in cell viability at 3.3 uM incubated for 48 hrs by MTT assay
Format: toxicity, cell-based
Details: human, HUVEC cells, read-out: INH
Property measured: cytotoxicity at 48 h, 3.3 µM (%)
Answers are plain numbers, in %.

The molecule identified as "CCCCc1ccc(NC(=O)c2ccc([N+](=O)[O-])o2)cc1" registered its cytotoxicity at 48 h, 3.3 µM at 68.2

Just for reference, ChEMBL document CHEMBL6127068 is where these values come from.
